Target: T1, GAL4 activation domain fusion (ACT) to HAB1 (UniProt Q9CAJ0 23-511, limits assumed)
T1 construct: pACT-HAB1 fusion in yeast reporter strains; also called pACT-HAB1
T1 sequence (looked up): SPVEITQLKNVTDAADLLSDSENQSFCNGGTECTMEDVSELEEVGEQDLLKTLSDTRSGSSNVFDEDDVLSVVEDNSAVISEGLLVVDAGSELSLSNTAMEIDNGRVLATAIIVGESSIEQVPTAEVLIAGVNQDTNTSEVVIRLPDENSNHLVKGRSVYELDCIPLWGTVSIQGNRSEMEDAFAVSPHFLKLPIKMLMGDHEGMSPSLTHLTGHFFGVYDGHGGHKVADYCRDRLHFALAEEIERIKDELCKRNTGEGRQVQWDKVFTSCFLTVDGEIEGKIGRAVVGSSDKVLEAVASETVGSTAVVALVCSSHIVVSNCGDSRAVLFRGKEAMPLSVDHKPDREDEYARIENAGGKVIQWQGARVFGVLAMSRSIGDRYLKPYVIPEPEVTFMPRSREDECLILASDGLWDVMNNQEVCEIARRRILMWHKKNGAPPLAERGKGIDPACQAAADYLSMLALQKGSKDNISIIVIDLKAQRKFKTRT
Test: yeast two-hybrid, X-gal; lowest fludioxonil concentration giving signal

>  <binder>
PYR1^K59R,T162W (receptor, not shown: small tags and cut ends, pBD-PYR1 fusion in yeast) MPSELTPEERSELKNSIAEFHTYQLDPGSCSSLHAQRIHAPPELVWSIVRRFDKPQTYRHFIKSCSVEQNFEMRVGCTRDVIVISGLPANTSTERLDILDDERRVTGFSIIGGEHRLTNYKSVTTVHRFEKENRIWTVVLESYVVDMPEGNSEDDTRMFADWVVKLNLQKLATVAEAMARNSGDGSGSQVT

>  <Threshold [µM]>
100

$$$$
>  <binder>
PYR1^K59R,V83L (receptor, not shown: small tags and cut ends, pBD-PYR1 fusion in yeast) MPSELTPEERSELKNSIAEFHTYQLDPGSCSSLHAQRIHAPPELVWSIVRRFDKPQTYRHFIKSCSVEQNFEMRVGCTRDVILISGLPANTSTERLDILDDERRVTGFSIIGGEHRLTNYKSVTTVHRFEKENRIWTVVLESYVVDMPEGNSEDDTRMFADTVVKLNLQKLATVAEAMARNSGDGSGSQVT

>  <Threshold [µM]>
100

$$$$
>  <binder>
PYR1^K59R,N167H (receptor, not shown: small tags and cut ends, pBD-PYR1 fusion in yeast) MPSELTPEERSELKNSIAEFHTYQLDPGSCSSLHAQRIHAPPELVWSIVRRFDKPQTYRHFIKSCSVEQNFEMRVGCTRDVIVISGLPANTSTERLDILDDERRVTGFSIIGGEHRLTNYKSVTTVHRFEKENRIWTVVLESYVVDMPEGNSEDDTRMFADTVVKLHLQKLATVAEAMARNSGDGSGSQVT

>  <Threshold [µM]>
100

$$$$
